Test system: GM1 production in Jurkat cells
Assay: cells
Assay type: cell-based
Conditions: Homo sapiens, Jurkat, 72 h
pIC50: −log10 of the molar value.
Lab note: anything with pIC50 at or over 9 counts as y; the rest go in n.

# molecule, assigned_category
records = [
    ("CC1(C)COc2cc(-c3ccccc3Cl)ccc2C1NC(=O)O[C@@H]1CN2CCC1CC2 (some centres unmarked)", "y"),
    ("COc1cccc(-c2ccc3c(c2)OCCC3NC(=O)O[C@@H]2CN3CCC2CC3)c1 (some centres unmarked)", "n"),
    ("O=C(NC1CCOc2cc(-c3ccc(OC(F)F)cc3)ccc21)O[C@@H]1CN2CCC1CC2 (some centres unmarked)", "n"),
]

Reported pIC50 reaches at least 9 for O=C(NC1CCOc2cc(-c3ccc4cc[nH]c4c3)ccc21)O[C@@H]1CN2CCC1CC2 (some centres unmarked) ? n
